Each record here notes measured pKd.
- ASSAYED SYSTEM: Dimeric Mouse Ang-2FD conjugated to human IgG1 (mouse (Mus musculus))
- Sequence (chain, as listed by the source limits assumed): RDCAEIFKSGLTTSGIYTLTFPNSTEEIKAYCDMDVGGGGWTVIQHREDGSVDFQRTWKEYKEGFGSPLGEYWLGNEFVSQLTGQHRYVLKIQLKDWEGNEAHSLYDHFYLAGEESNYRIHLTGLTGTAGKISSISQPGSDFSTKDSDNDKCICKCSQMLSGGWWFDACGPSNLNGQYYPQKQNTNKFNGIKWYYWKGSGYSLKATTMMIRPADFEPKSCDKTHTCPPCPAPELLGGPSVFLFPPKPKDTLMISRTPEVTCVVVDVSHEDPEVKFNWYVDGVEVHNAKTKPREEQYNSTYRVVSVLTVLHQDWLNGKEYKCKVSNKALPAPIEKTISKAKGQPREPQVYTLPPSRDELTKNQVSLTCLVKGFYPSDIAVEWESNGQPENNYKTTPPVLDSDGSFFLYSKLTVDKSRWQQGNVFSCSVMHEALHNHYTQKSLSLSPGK
- ASSAY SUMMARY: SPR, human IgG1 antibody captured
API: returns pKd as number; meaning -log10 of concentration in mol/L.

Take a look at these entries with their results.
{"BINDER": "H1H730N (antibody, V domains shown) VH: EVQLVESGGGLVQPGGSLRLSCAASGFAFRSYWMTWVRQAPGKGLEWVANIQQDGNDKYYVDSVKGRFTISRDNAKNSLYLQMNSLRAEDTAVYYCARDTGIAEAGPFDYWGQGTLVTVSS VL: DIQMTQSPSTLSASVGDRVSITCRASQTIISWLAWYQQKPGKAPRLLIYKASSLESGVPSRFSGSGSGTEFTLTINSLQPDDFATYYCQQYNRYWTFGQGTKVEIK", "pKd": 10.01}
{"BINDER": "H1H693P (antibody, human IgG1, V domains shown) VH: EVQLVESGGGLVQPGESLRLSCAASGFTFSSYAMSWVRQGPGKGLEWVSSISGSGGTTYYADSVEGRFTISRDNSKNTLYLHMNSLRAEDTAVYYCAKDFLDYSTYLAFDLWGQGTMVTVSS VL: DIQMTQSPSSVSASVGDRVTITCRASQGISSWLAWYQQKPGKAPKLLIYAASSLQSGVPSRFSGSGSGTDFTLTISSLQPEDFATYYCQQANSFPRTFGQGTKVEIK", "pKd": 9.35}

Now for another entry.
Which pKd value belongs to H1H724N (antibody, V domains shown) VH: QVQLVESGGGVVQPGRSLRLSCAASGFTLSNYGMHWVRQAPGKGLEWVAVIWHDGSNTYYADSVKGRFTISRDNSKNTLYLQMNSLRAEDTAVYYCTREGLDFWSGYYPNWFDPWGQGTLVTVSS VL: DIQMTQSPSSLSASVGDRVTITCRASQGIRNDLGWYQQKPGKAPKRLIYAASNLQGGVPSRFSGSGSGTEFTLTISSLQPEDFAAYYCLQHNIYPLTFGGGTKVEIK ?
9.73
